biological target: BSA (UniProt P02769); assay: scFv ELISA
Sequence (P02769 25-607 limits assumed): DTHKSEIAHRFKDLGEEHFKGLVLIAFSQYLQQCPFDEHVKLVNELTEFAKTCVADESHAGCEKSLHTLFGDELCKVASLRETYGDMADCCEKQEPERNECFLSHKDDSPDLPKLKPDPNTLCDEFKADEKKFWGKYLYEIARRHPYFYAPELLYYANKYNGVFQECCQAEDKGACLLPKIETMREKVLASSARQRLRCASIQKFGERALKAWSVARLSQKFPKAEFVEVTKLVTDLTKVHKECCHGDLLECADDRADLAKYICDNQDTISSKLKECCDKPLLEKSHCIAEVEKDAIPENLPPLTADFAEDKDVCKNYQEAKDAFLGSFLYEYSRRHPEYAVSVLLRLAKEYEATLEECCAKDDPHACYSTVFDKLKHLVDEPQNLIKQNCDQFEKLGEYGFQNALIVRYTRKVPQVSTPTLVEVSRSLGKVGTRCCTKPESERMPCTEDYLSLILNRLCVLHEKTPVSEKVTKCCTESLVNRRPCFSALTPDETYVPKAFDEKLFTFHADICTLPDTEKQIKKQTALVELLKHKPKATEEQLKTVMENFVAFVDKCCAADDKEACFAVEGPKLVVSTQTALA
reported_endpoint: OD450
Please answer using the number first and the unit second.

Examples from the recorded data:
binder="PcOxP_DB02_F06 (scFv, V domains shown, scFv in periplasmic extract) VH: EVQLLESGGGLVQPGGSLRLSCAASGFTFSDEYMEWVRQAPGKGLEWVAASRNKANDFTTEYADSVKGRFTISRDNSKNTLYLQMNSLRAEDTAVYYCARDFYGSSYWYFDVWGQGTLVTVSS VL: DIVMTQSPDSLAVSLGERATINCTASESIYSSKHKVHYLAWYQQKPGQPPKLLIYGASNRYIGVPDRFSGSGSGTDFTLTISSLQAEDVAVYYCAQFYSYPLTFGGGTKVEIK" reported_endpoint=OD450 observed_value="0.06 OD450"
binder="PcOxP_DB01_H04 (scFv, V domains shown, scFv in periplasmic extract) VH: EVQLLESGGGLVQPGGSLRLSCAASGFAFSDFYMEWVRQAPGKGLEWVAASRNKANDYTTEYADSVKGRFTISRDNSKNTLYLQMNSLRAEDTAVYYCARDYYGSHYWYFDVWGQGTLVTVSS VL: DIQMTQSPSSLSASVGDRVTITCTASESLYSSKHKVHYLAWYQQKPGKAPKLLIYGASNLQSGVPSRFSGSGSGTDFTLTISSLQPEDFATYYCAQFYYYPLTFGGGTKVEIK" reported_endpoint=OD450 observed_value="0.11 OD450"

Respectfully, I request OD450 for each entry included below.
1. PcOxP_DB01_A06 (scFv, V domains shown, scFv in periplasmic extract) VH: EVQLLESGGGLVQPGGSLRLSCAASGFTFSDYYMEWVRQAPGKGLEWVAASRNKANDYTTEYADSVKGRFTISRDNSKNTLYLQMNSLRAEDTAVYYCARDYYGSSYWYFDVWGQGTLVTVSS VL: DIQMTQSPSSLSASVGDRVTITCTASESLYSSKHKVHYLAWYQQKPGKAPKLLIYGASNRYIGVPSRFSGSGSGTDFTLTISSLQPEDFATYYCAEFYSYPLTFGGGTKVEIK
2. PcOxP_DB01_D08 (scFv, V domains shown, scFv in periplasmic extract) VH: EVQLLESGGGLVQPGGSLRLSCAASGFTFSDAYMEWVRQAPGKGLEWVAASRNKANDYTTEYADSVKGRFTISRDNSKNTLYLQMNSLRAEDTAVYYCARDYYGSSYWYFDSWGQGTLVTVSS VL: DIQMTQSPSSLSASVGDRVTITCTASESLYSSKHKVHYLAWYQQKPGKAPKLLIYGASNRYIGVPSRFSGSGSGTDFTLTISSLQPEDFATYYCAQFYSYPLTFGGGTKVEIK
3. PcOxP_DB02_C08 (scFv, V domains shown, scFv in periplasmic extract) VH: EVQLLESGGGLVQPGGSLRLSCAASGFTFSDPYMEWVRQAPGKGLEWVAASRNKANDYTTEYADSVKGRFTISRDNSKNTLYLQMNSLRAEDTAVYYCARDYYGSPYWYFDVWGQGTLVTVSS VL: DIVMTQSPDSLAVSLGERATINCGASESLYSSKSKVHYLAWYQQKPGQPPKLLIYGASNRYIGVPDRFSGSGSGTDFTLTISSLQAEDVAVYYCAQFYSYPLTFGGGTKVEIK

[A]
["0.1 OD450", "0.08 OD450", "0.06 OD450"]

These measurements were taken from patent US20250320312A1.
